molecular target: OCT3 (SLC22A3) (Homo sapiens, UniProt O75751); assay: Inhibition of OCT3 (unknown origin) overexpressed in HEK293 cells assessed as intracellular accumulation of ASP+ incubated for 2 mins by Analyst AD plate reader method relative to control; format: cell-based; design: concentration or dose not given beside the values; details: HEK293 cells overexpressing OCT3, probe ASP+
Sequence (O75751 whole entry): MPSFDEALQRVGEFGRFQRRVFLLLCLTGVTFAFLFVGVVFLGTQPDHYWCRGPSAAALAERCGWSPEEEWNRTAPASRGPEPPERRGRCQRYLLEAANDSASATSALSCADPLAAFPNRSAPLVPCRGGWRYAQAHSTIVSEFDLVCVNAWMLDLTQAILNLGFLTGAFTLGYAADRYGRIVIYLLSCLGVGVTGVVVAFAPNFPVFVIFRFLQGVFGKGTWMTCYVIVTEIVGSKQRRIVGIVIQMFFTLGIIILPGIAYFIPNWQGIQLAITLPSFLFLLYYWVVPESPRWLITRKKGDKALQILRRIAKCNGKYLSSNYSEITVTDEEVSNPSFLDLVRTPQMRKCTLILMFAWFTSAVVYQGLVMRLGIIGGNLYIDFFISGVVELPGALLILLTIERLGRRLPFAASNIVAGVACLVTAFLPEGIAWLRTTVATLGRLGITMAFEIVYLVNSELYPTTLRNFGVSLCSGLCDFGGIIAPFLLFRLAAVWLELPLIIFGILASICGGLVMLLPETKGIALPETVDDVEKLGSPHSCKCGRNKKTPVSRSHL
reported.endpoint: inhibition at 2 min (%)

[[record]]
compound = "CCCCC(CC)CNC(=N)NC(=N)NCCCCCCNC(=N)NC(=N)NCC(CC)CCCC (stereo not given)"
result_units = "%"
assay_result = 98.1

[[record]]
compound = "CN(C)c1ccc(C(=C2C=CC(=[N+](C)C)C=C2)c2ccc(N(C)C)cc2)cc1"
result_units = "%"
assay_result = 107

[[record]]
compound = "[H]/N=C(\\N/C(=N/[H])NCCCCCCNC(=N)NC(=N)Nc1ccc(Cl)cc1)Nc1ccc(Cl)cc1"
result_units = "%"
assay_result = 98.4

[[record]]
compound = "Cc1cc(N)c2ccccc2[n+]1CCCCCCCCCC[n+]1c(C)cc(N)c2ccccc21"
result_units = "%"
assay_result = 66.6

[[record]]
compound = "CC(C)[N+]1(C)[C@@H]2CC[C@H]1C[C@@H](OC(=O)C(CO)c1ccccc1)C2 (stereo not given in full)"
result_units = "%"
assay_result = 47.8


These data points were gathered from ChEMBL document CHEMBL5113524.
